- Tested on: M14
- assay.notes: NCI tumour cell line growth inhibition, 48 h
Active and inactive are the calls of the source. Rule as the data show it: active = GI50 up to about 1.1 µM and inactive = higher.
Provide the recorded GI50 for the entries that follow.

Exercise: GI50 for O=S(=O)(Cc1cnc(O)nc1O)Cc1cnc(O)nc1O ?
Key: > 100 µM (inactive)

Exercise: Fill in: GI50 of CNC(=O)C(C)NC(=O)C(Cc1ccccc1)NC(=O)OC(C)(C)C (stereo not given) is ___
Key: > 100 µM (inactive)

Exercise: # lookup: GI50 of CC[C@H](C)C1=C(OC(C)=O)[N@+]2([O-])Oc3ccc(-c4c(OC(C)=O)c(OC(C)=O)c(-c5ccc(OC(C)=O)cc5)c(OC(C)=O)c4OC(C)=O)cc3O[C@]2([C@@H](C)CC)C(=O)N1OC(C)=O
Key: 16.9 µM (inactive)

Exercise: Which GI50 reading was recorded for the compound Cc1ccnc2c1c(=O)c1ccccc1n2C ?
Key: 39 µM (inactive)

Exercise: Look up GI50: CC1N(C)C(=O)OC12CCN(CCCC(=O)c1ccc(F)cc1)CC2 (stereo not given)
Key: > 100 µM (inactive)

Exercise: Suppose we examine the compound CN(C)Cc1cc(C(=O)/C=C/c2ccccc2Cl)cc(CN(C)C)c1O ; what GI50 value has been reported?
Key: 11.2 µM (inactive)

Exercise: Name the recorded GI50 for CC(C)C1CN(C(=O)OCc2ccccc2)C2N1C(=O)C2(C)OCc1ccccc1 (stereo not given) .
Key: 36.1 µM (inactive)

Exercise: Would you kindly share the measured GI50 for C=C(C)[C@@H]1CCC2=C[C@H](OC2=O)[C@@]2(C)C[C@@H]2C2=CC(C)=C(O2)[C@H]1O ?
Key: 68.4 µM (inactive)

Exercise: So what's the measured GI50 for this one? Fc1cccc(F)c1C1SCc2nc3ccc(Cl)cc3n21 (stereo not given)
Key: > 100 µM (inactive)

Exercise: I'd like to know its GI50. The compound in question is COc1cc2c(cc1OC)C1CN3C(=O)CCC3C(O)C1c1cc(OC)c(OC)cc1-2 (stereo not given)
Key: > 100 µM (inactive)

Exercise: I would be grateful if you could share the reported GI50 for CC(=O)NC(CCCCNC(=O)OCc1ccccc1)C(=O)NCc1ccccc1 (stereo not given) .
Key: > 100 µM (inactive)

Exercise: Entry under review: CC(=O)N(O)c1ccc(-c2nc3ccccc3s2)cc1 . Reported GI50?
Key: 85.7 µM (inactive)

Exercise: May I ask what GI50 has been recorded for COc1cc2c(cc1OC)C(C#N)(Cc1ccccc1)N(C(=O)c1ccccc1)C=C2 (stereo not given) ?
Key: > 100 µM (inactive)

Exercise: Any idea what its GI50 is? The compound is C/C(CC(=O)NCCc1ccccc1)=N\NS(=O)(=O)c1ccc(C)cc1
Key: > 100 µM (inactive)

Exercise: Can you share its GI50? I mean this compound: CC1(C2COC(=O)C2)SCCCS1 (stereo not given)
Key: > 100 µM (inactive)

Exercise: Look up GI50 for this compound: O=C(CCC(=O)Nc1ccc(Cl)c(Cl)c1)CC(=O)c1ccc(Br)cc1
Key: > 100 µM (inactive)

Exercise: Would you mind telling me what GI50 value was observed for CC1(C)CC(=O)C2=C(C1)NC1=C(C(=O)CC(C)(C)C1)C2c1ccc([N+](=O)[O-])cc1 ?
Key: > 100 µM (inactive)

Exercise: Report GI50 for CCO/N=C(/CC)c1ccc(Br)s1 please.
Key: > 100 µM (inactive)

Exercise: Entry Cc1cccc2c(N)c3cccc(C(=O)NCC[N+](C)(C)Cc4ccc([N+](=O)[O-])n4C)c3nc12 has what GI50?
Key: 23.3 µM (inactive)

Exercise: Which measured GI50 value corresponds to O=C1CC2(CCC(O)(c3ccco3)C(C(=O)c3ccco3)C2)C(=O)c2ccccc2N1 (stereo not given) ?
Key: 99.5 µM (inactive)
